Values from patent US20220041746A1

Target: T1, cCD38-his (SEQ ID NO: 4) (cynomolgus monkey, UniProt Q5VAN0 46-301)
T1 construct: His-tagged soluble protein; also called cyno CD38-histag; cynoCD38::Histag
Assay: SPR, mAb captured via anti-human Fc, soluble CD38-his injected
reportedMetric: koff

>>> valuereported("mAb1 (antibody, human IgG1, kappa, V domains shown, also called antiCD38_C2-CD38-1) VH: QVQLQQSGAELVRSGASVKMSCKASGYTFTSFNMHWVKETPGQGLEWIGYIYPGNGGTNYNQKFKGKATLTADTSSSTAYMQISSLTSEDSAVYFCARTGGLRRAYFTYWGQGTLVTVSS VL: DIVLTQSPASLAVSLGQRATISCRASESVDSYGNGFMHWYQQKPGQPPKLLIYLASNLESGVPARFSGSGSRTDFTLTIDPVEADDAATYYCQQNKEDPWTFGGGTKLEIKR")
"9.85e-05 s⁻¹"
>>> valuereported("mAb3 (antibody, human IgG1, kappa, V domains shown, also called antiCD38_C2-CD38-1_VH3-VL3) VH: QVQLVQSGAEVVKPGASVKVSCKASGYTFTSFNMHWVKEAPGQRLEWIGYIYPGNGGTNYNQKFQGRATLTADTSASTAYMELSSLRSEDTAVYFCARTGGLRRAYFTYWGQGTLVTVSS VL: DIVLTQSPATLSLSPGERATISCRASESVDSYGNGFMHWYQQKPGQPPRLLIYLASSRATGIPARFSGSGSGTDFTLTISPLEPEDFAVYYCQQNKEDPWTFGGGTKLEIKR")
"0.000129 s⁻¹"
>>> valuereported("mAb2 (antibody, human IgG1, kappa, V domains shown, also called antiCD38_C2-CD38-1_VH1-VL1; CD38VH1) VH: QVQLVQSGAEVVKPGASVKVSCKASGYTFTSYAMHWVKEAPGQRLEWIGYIYPGQGGTNYNQKFQGRATLTADTSASTAYMELSSLRSEDTAVYFCARTGGLRRAYFTYWGQGTLVTVSS VL: DIVLTQSPATLSLSPGERATISCRASQSVSSYGQGFMHWYQQKPGQPPRLLIYGASSRATGIPARFSGSGSGTDFTLTISPLEPEDFAVYYCQQNKEDPWTFGGGTKLEIKR")
"0.000784 s⁻¹"
>>> valuereported("mAb4 (antibody, human IgG1, kappa, V domains shown, also called antiCD38_C2-CD38-1_VH5-VL3) VH: QVQLVQSGAEVVKSGASVKVSCKASGYTFTSFNMHWVKEAPGQGLEWIGYIYPGNGGTNYNQKFQGRATLTADTSASTAYMEISSLRSEDTAVYFCARTGGLRRAYFTYWGQGTLVTVSS VL: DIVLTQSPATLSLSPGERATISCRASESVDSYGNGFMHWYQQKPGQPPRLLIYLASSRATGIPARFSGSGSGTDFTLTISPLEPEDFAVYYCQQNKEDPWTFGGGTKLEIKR")
"0.000201 s⁻¹"
>>> valuereported("mAb5 (antibody, human IgG1, kappa, V domains shown, also called antiCD38_C2-CD38-1_VH6-VL3) VH: QVQLVQSGAEVVKPGASVKMSCKASGYTFTSFNMHWVKEAPGQRLEWIGYIYPGNGGTNYNQKFQGRATLTADTSASTAYMEISSLRSEDTAVYFCARTGGLRRAYFTYWGQGTLVTVSS VL: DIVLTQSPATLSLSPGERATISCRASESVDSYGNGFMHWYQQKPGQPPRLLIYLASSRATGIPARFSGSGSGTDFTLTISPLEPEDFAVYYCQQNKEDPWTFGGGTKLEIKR")
"0.000125 s⁻¹"
